- systemTested: T1, Sul7s N21A (Sulfolobus islandicus Rey15A, UniProt F0NBY5 1-59, N21A)
- T1 sequence: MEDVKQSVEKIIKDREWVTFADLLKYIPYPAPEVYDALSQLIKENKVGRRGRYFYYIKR
- experimentDescription: BLI; BLI: 50 mM Tris-Cl pH 7.5, 100 mM NaCl, 1 mM EDTA, 0.02% Tween-20, 30 C; NMR: 20 mM potassium phosphate pH 7.0, 30 mM NaCl, 0.02% NaN3, 298 K
- conditionsUsed: protein: recombinant; tags: untagged; label: 5'-biotin
measuredParameter: pKd
pKd (log units): -log10 of the concentration in mol/L.

What value of pKd has been recorded for this entry: TTTCTACCCTTTGGTGCTAATGCCCATACT (ssDNA) [S30 (S30-F)]
5.05
